Target: cloned human 5-HT1A receptors (Homo sapiens, UniProt P08908)
Construct: expressed in transfected cells
Sequence (P08908 1-422): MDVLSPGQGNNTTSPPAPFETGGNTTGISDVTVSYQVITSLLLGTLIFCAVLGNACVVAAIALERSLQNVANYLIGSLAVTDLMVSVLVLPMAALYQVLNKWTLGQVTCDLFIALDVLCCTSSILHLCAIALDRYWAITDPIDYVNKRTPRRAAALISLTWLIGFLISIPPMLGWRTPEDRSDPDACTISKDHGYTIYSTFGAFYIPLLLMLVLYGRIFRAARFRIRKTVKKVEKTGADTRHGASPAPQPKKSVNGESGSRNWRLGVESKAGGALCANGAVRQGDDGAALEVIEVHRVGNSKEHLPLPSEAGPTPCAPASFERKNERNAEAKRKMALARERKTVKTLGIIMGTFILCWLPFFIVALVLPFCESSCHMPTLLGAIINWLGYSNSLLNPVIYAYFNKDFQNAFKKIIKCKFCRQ
Assay: 35S-GTPγS binding assay, 5-HT1A antagonist function
Type: biochemical
Conditions: reversal of 8-OHDPAT effect on 35S-GTPγS binding
Here, each record is paired with measured 5-HT1A Function Imax (maximum inhibitory effect) data.
Answer using only a numeral; do not append any unit.

Worked examples, 4 molecules total:
1. Cc1cc2c3c(ccc2[nH]1)OCC(CN1CC=C(c2c[nH]c4ccccc24)CC1)O3 (centres unmarked) [Example 1]; 100
2. C1=C(c2c[nH]c3ccccc23)CCN(CC2COc3ccc4[nH]ccc4c3O2)C1 (centres unmarked) [Example 2]; 52
3. CCc1cc2c3c(ccc2[nH]1)OCC(CN1CC=C(c2c[nH]c4ccc(F)cc24)CC1)O3 (centres unmarked) [Example 5]; 98
4. CCc1cc2c3c(ccc2[nH]1)OCC(CN1CC=C(c2c[nH]c4ccccc24)CC1)O3 (centres unmarked) [Example 4]; 78

--- query ---
Note down 5-HT1A Function Imax (maximum inhibitory effect) recorded for Fc1ccc2[nH]cc(C3=CCN(CC4COc5ccc6[nH]ccc6c5O4)CC3)c2c1 (centres unmarked) [Example 3] 100

----------
Read-out record for cloned human 5-HT1A receptors (Homo sapiens, UniProt P08908): IC50
Write down the numeric answer in nM and omit the unit.

Worked examples, 4 molecules total:
1. C1=C(c2c[nH]c3ccccc23)CCN(CC2COc3ccc4[nH]ccc4c3O2)C1 (centres unmarked); 23
2. CCc1cc2c3c(ccc2[nH]1)OCC(CN1CC=C(c2c[nH]c4ccccc24)CC1)O3 (centres unmarked); 73
3. Fc1ccc2[nH]cc(C3=CCN(CC4COc5ccc6[nH]ccc6c5O4)CC3)c2c1 (centres unmarked); 11.3
4. CCc1cc2c3c(ccc2[nH]1)OCC(CN1CC=C(c2c[nH]c4ccc(F)cc24)CC1)O3 (centres unmarked); 265

--- query ---
Note down IC50 recorded for Cc1cc2c3c(ccc2[nH]1)OCC(CN1CC=C(c2c[nH]c4ccccc24)CC1)O3 (centres unmarked) 16

----------
Here, each record is paired with measured pKi data.
Molecular target: serotonin transporter (Rattus norvegicus, UniProt P31652)
Sequence (P31652 whole entry): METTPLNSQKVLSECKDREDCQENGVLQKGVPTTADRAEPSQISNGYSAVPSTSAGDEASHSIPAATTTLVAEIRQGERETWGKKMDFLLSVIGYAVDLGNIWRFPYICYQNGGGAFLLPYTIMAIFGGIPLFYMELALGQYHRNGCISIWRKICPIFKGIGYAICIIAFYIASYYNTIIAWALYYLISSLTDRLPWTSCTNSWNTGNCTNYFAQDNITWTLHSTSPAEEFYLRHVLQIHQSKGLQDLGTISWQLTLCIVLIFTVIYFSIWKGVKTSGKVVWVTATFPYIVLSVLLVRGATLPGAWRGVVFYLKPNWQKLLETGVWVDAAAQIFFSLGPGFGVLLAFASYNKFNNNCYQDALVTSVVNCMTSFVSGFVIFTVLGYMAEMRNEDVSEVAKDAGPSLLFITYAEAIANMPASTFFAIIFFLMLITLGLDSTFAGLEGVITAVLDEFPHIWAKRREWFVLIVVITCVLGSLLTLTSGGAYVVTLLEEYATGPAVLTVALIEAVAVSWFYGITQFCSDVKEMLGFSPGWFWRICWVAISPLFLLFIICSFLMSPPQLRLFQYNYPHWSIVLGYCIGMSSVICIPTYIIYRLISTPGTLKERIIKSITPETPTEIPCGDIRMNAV
Hey, just a heads up that pKi is the negative log base 10 of the concentration in molar.

1. C1=C(c2c[nH]c3ccccc23)CCN(CC2COc3ccc4[nH]ccc4c3O2)C1 (centres unmarked); 9.11
2. CCc1cc2c3c(ccc2[nH]1)OCC(CN1CC=C(c2c[nH]c4ccc(F)cc24)CC1)O3 (centres unmarked); 8.00
3. CCc1cc2c3c(ccc2[nH]1)OCC(CN1CC=C(c2c[nH]c4ccccc24)CC1)O3 (centres unmarked); 8.00
4. Cc1cc2c3c(ccc2[nH]1)OCC(CN1CC=C(c2c[nH]c4ccccc24)CC1)O3 (centres unmarked); 8.46

--- query ---
Recall the reported pKi of Fc1ccc2[nH]cc(C3=CCN(CC4COc5ccc6[nH]ccc6c5O4)CC3)c2c1 (centres unmarked) on serotonin transporter (Rattus norvegicus, UniProt P31652) and write it down. 8.91
